# assay: NCI Yeast Anticancer Drug Screen. Data for the sgs1 mgt1 strain (AID 161);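 also: 0% = growth of cultures given vehicle only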
# measurement-parameters: S. cerevisiae sgs1 mgt1 strain, at 50.0 µM, stronger effect = higher value
About 79,000 compounds went through this panel and 15% of them were active in at least one assay; those are over-represented in the sample as a whole.
Please provide measured growth inhibition for the entries that follow.
Answers are plain numbers, in %.

Here is how some compounds turned out for growth inhibition.
{"compound": "C=C1CCC[C@@]2(C)CC[C@@H](/C(C)=C\\C=C\\C(C)(C)O)C[C@H]12", "display-unit": "%", "growth inhibition": 92.5}
{"compound": "CC(C)(C)C(=O)CC(=O)C(F)(F)C(F)(F)C(F)(F)F.CC(C)(C)C(=O)CC(=O)C(F)(F)C(F)(F)C(F)(F)F.CC(C)(C)C(=O)CC(=O)C(F)(F)C(F)(F)C(F)(F)F.[Gd]", "display-unit": "%", "growth inhibition": 90.7}
{"compound": "Cc1cc(C)c(Cc2ccccc2O)cc1Cc1ccccc1O", "display-unit": "%", "growth inhibition": 92.5}
{"compound": "O=C1/C(=C\\c2ccccc2)CN(C(=O)CCN2CCCCC2)C/C1=C/c1ccccc1", "display-unit": "%", "growth inhibition": 90.3}
{"compound": "COc1ccc(/C(Cl)=C(\\c2ccc(OCCN(C)C)cc2)c2ccc(OC(=O)C(C)(C)C)cc2)cc1", "display-unit": "%", "growth inhibition": 92.3}

We now examine a further compound.
Notebook: Cc1cc(Cl)ccc1NC(=O)CC1SC(=NC(=O)c2ccccc2Cl)NC1=O (stereo unspecified) , growth inhibition read as 90.7

---

Please provide measured growth inhibition for the entries that follow.
# assay: NCI Yeast Anticancer Drug Screen. Data for the rad50 strain (AID 155);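 also: 0% = growth of vehicle-only cultures of the same strain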
# measurement-parameters: S. cerevisiae rad50 strain growth inhibition; at 50.0 µM (retest, dose inferred, filed as 5.0); stronger effect = higher value
# Protocol: Growth inhibition of yeast strains with defined genetic alterations is measured as a screen for potential anti-cancer activity. Selected strains with alterations in DNA damage repair or cell cycle control were exposed to compounds and growth inhibition was measured relative to vehicle treated controls. The strain used in this assay is rad50
The panel holds about 79,000 compounds, 15% with a hit somewhere; the sample as a whole holds those more often.
Give bare numbers, in %.

{"molecule": "CC(=O)O[C@@H]1[C@@H](O)[C@H]2O[C@@H]3C=C(C)CC[C@]3(CO)[C@]1(C)[C@@]21CO1", "display-unit": "%", "growth inhibition": 93}
{"molecule": "N#[N+]c1c([O-])ccc2nc3ccccc3nc12", "display-unit": "%", "growth inhibition": 12}
{"molecule": "Nc1nc(Cl)cc(Nc2ccc(Cl)c(Cl)c2)n1", "display-unit": "%", "growth inhibition": 91}

Each molecule below has a recorded value; state its growth inhibition.
1. CCCCCCCn1ccnc1NCCCCCCCCCCNc1nccn1CCCCCCC
2. CCCCOc1ccc(CC(O)CN2CCCCC2C)cc1 (stereo not given)
3. O=C1CSC(c2ccccc2O)N1c1ccc(-n2c(-c3ccccc3)nc3ccccc3c2=O)cc1 (stereo not given)
4. COc1cc(NCCCCCNC2CCCCC2)c2ncccc2c1

[98, 49, 78, 64]

---

# assay: NCI Yeast Anticancer Drug Screen. Data for the mec2-1 strain (AID 157)
# measurement-parameters: S. cerevisiae mec2-1 strain, at 50.0 µM (retest, dose inferred, filed as 5.0), stronger effect = higher value
This is part of a sample that, as a whole, favours compounds with a hit. Of some 79,000 tested, about 15% had one in any assay. Activity calls are given as the source filed them. Cut-off read from the data, not from the text of the source: active = growth inhibition above about 70%; inactive = the rest.
Please provide measured growth inhibition for the entries that follow.

{"compound": "CCCCCCCCCc1cc(=O)[nH]c(=S)[nH]1", "meas-value": "72% (active)"}
{"compound": "CCOC(=O)c1sc2c(c1O)c(=O)n(-c1ccccc1)c(=S)n2-c1ccccc1", "meas-value": "98% (active)"}
{"compound": "C/C(=N/O)C1CC(CCC2([N+](=O)[O-])CCC(C)(O)C(/C(C)=N/O)C2)([N+](=O)[O-])CCC1(C)O (configuration not stated)", "meas-value": "-1% (inactive)"}
{"compound": "Cc1cc(C(=O)O)c(C)c2c1sc1ccccc12", "meas-value": "79% (active)"}

Each compound below has a recorded value; state its growth inhibition.
1. CC(=O)OC1C2C3C(C=CC2[C@H]1OC(C)=O)C1C3C=CC2C1C(OC(C)=O)[C@@H]2OC(C)=O (some centres not stated)
2. O=C(O)C1C(=O)OC2CCCCC21 (configuration not stated)
3. COc1cc(NCc2ccc3nc(-c4ccccc4)c(N)nc3c2)cc(OC)c1OC

21% (inactive)
1% (inactive)
-12% (inactive)

---

Please provide measured growth inhibition for the entries that follow.
# assay: NCI Yeast Anticancer Drug Screen. Data for the mlh1 rad18 strain (AID 175)
# measurement-parameters: S. cerevisiae mlh1 rad18 strain growth inhibition; at 50.0 µM; stronger effect = higher value
# Description: Growth inhibition of yeast strains with defined genetic alterations is measured as a screen for potential anti-cancer activity. Selected strains with alterations in DNA damage repair or cell cycle control were exposed to compounds and growth inhibition was measured relative to vehicle treated controls. The strain used in this assay is mlh1 rad18
This is part of a sample that, as a whole, favours compounds with a hit. Of some 79,000 tested, about 15% had one in any assay.
One number for each entry, in %.

Here is how some compounds turned out for growth inhibition.
{"compound": "COc1ccc(N)c([N+](=O)[O-])c1", "display-unit": "%", "growth inhibition": 27.9}
{"compound": "Cc1ccc(NN)cc1", "display-unit": "%", "growth inhibition": 80.5}
{"compound": "COC(=O)c1ccc2ccccc2c1", "display-unit": "%", "growth inhibition": 34.3}
{"compound": "COC(=Nc1ccccc1)SSC(C)C", "display-unit": "%", "growth inhibition": 85.5}
{"compound": "O=C(NNc1ccccc1)C(O)C(O)C(O)C(O)C(O)C(O)C(O)CO (stereo unspecified)", "display-unit": "%", "growth inhibition": 92.8}
{"compound": "O=C1CSC(Cc2nc3ccccc3[nH]2)=N1", "display-unit": "%", "growth inhibition": 74.9}
{"compound": "O=CCCCc1cc2c(cc1Br)CCC2", "display-unit": "%", "growth inhibition": 50.4}
{"compound": "NNc1ncc2c(n1)-c1ccccc1OC2", "display-unit": "%", "growth inhibition": 89.8}
{"compound": "Nc1ccc2ccc3cccc4ccc1c2c34", "display-unit": "%", "growth inhibition": 88.9}
{"compound": "CC(=O)Oc1c(Br)ccc2cc(C(Br)Br)c(C(=O)c3ccccc3)nc12", "display-unit": "%", "growth inhibition": 81.4}

Each compound below has a recorded value; state its growth inhibition.
1. Clc1ccc(C(CCOc2ccccc2Br)Cn2ccnc2)c(Cl)c1 (stereo unspecified)
2. S=C1NCCNC(=S)SS1
3. CCOC(=O)C1CC(C(=O)OCC)C(=O)C1=O (stereo unspecified)
4. O=C(CCCN1CCC(C(O)c2ccc(F)cc2)CC1)c1ccc(F)cc1 (stereo unspecified)
5. OCCN1CCN(CCCN2c3cc(Cl)ccc3Sc3ccsc32)CC1
6. COc1ccccc1C1C(Cl)C(=O)N1n1cnc2ccccc2c1=O (stereo unspecified)
7. CCCCCC(C)NCC(O)Cc1ccc(OCCCC)cc1 (stereo unspecified)

1: 95.3; 2: 44.5; 3: 47.9; 4: 68.5; 5: 98.1; 6: 76.8; 7: 99.7

Each compound below has a recorded value; state its growth inhibition.
1. COc1ccc(C(c2c(O)c3ccccc3oc2=O)N2CCOCC2)c(OC)c1 (stereo unspecified)
2. C[C@]12CC[C@H](O)CC1=CC[C@@H]1C2CC[C@]2(C)C(=O)N(N)C(=O)CC12 (stereo partly specified)
3. O=C(Oc1c(I)ccccc1=O)c1ccc([N+](=O)[O-])cc1

1. 43.4
2. 84.4
3. 99.5

Each compound below has a recorded value; state its growth inhibition.
1. O=C1OC(c2ccccc2)=N/C1=C\c1ccc(Oc2ccc(Cl)c(Cl)c2)cc1
2. Cc1ccc2c(c1)nc1n2C(N)=Nc2ccccc2S1
3. CSS(=O)(=O)c1ccc(C)cc1
4. O=[N+]([O-])/C(Br)=C\c1ccc([N+](=O)[O-])cc1
5. C1CCC2CC3(CCNCC3)CCC2C1 (stereo unspecified)
6. Cc1cc(NS(=O)(=O)c2ccc(N)cc2)no1.[Ag]

[52.4, 57.2, 99.5, 99.5, 92, 99.5]

Each compound below has a recorded value; state its growth inhibition.
1. Cc1ccc(C(O)CCN2CCOCC2)c(C)c1 (stereo unspecified)
2. CCCC(=O)C1=C(O)C(Cc2c(O)c(C)c(O)c(C(=O)CCC)c2O)=C(O)C(C)(C)C1=O

1: 69.2; 2: 99

Each compound below has a recorded value; state its growth inhibition.
1. CCO/C=C1/N=C(c2cc(Cl)cc([N+](=O)[O-])c2)OC1=O
2. C/C(=N\O)c1ccc2cc(Br)c3ccccc3c2c1
3. O=C(O)c1cc2c3ccccc3sc2c2ccccc12
4. Clc1ccc(CN2COc3c(cc(Cl)c4cccnc34)C2)c(Cl)c1

9.15
96.7
28
1.4

Each compound below has a recorded value; state its growth inhibition.
1. S=c1[nH]c2cc(Cl)ccc2s1.[Zn+2]
2. CC(=O)c1ccc([N+](=O)[O-])o1
3. O=[N+]([O-])c1ccc(O)c(-c2ccccc2)c1
4. COc1ccc2c(N3CCN(C(=O)C(Cl)(Cl)Cl)CC3)cc(C)nc2c1
5. C[n+]1c(-c2ccc(/C=N\NC(=O)c3ccc(C(=O)N/N=C/c4ccc(-c5cn6ccsc6[n+]5C)cc4)cc3)cc2)cn2ccsc21

1: 97.5; 2: 98.4; 3: 99.2; 4: 2.75; 5: 91.5

Each compound below has a recorded value; state its growth inhibition.
1. O=C(Nn1c(=O)c(=O)oc2ccccc21)C(F)(F)F
2. CC(CCCN(C)Cc1ccccc1)Nc1ccnc2cc(Cl)ccc12 (stereo unspecified)
3. O=c1c(SSc2coc3ccccc3c2=O)coc2ccccc12
4. CCC(C)C(C(=O)NOC(=O)c1ccccc1)/C(N)=N/OC(=O)c1ccccc1 (stereo unspecified)

1: 97.4; 2: 98; 3: 93.5; 4: 98.9
